Values compiled from PubChem BioAssay.

The following compounds are listed with their measured differential viability (reversal) values.
# Assay notes: reversal of MRP1-mediated doxorubicin resistance, pilot screen, H69AR cells, doxorubicin co-treatment (AID 601)
# Run parameters: H69AR cells + 2 uM doxorubicin, CellTiter-Glo, 72 h; at 10 µM; stronger effect = higher value

[
  {
    "Compound": "O=C(O)/C=C/c1ccc(O)c(O)c1",
    "Unit descriptor": "%",
    "differential viability (reversal)": 5.39
  },
  {
    "Compound": "COC(=O)c1ccccc1NC(=O)CN1CCC(n2nnc3cc(F)ccc32)CC1",
    "Unit descriptor": "%",
    "differential viability (reversal)": 10.3
  },
  {
    "Compound": "COc1ccc(-c2cc3ccc(OCc4nn[nH]n4)cc3oc2=O)cc1",
    "Unit descriptor": "%",
    "differential viability (reversal)": 14.1
  },
  {
    "Compound": "Cc1c(N(C)C)nc2ccccc2c1N",
    "Unit descriptor": "%",
    "differential viability (reversal)": -5.31
  },
  {
    "Compound": "CCN1CCN(Cc2c(C)[nH]c3ccc(OC)cc3c2=O)CC1",
    "Unit descriptor": "%",
    "differential viability (reversal)": 4.75
  },
  {
    "Compound": "CC1CCCCN1CCNS(=O)(=O)c1ccc2c(c1)oc(=O)n2C (configuration not stated)",
    "Unit descriptor": "%",
    "differential viability (reversal)": 7.79
  },
  {
    "Compound": "Cc1ccc(CSc2nc3c(c(=O)[nH]2)C(c2ccncc2)C2=C(CCCC2=O)N3)cc1 (configuration not stated)",
    "Unit descriptor": "%",
    "differential viability (reversal)": 6.75
  },
  {
    "Compound": "COC(=O)c1ccc(CN(c2ccccc2OC)S(=O)(=O)c2cccs2)o1",
    "Unit descriptor": "%",
    "differential viability (reversal)": -15.4
  },
  {
    "Compound": "Cn1nc(-c2ccc(N3CCCCC3)c(NC(=O)c3ccco3)c2)c2ccccc2c1=O",
    "Unit descriptor": "%",
    "differential viability (reversal)": 11.6
  },
  {
    "Compound": "O=C(Cn1cnc2c(nnn2-c2ccc(F)cc2)c1=O)NCc1ccco1",
    "Unit descriptor": "%",
    "differential viability (reversal)": -0.975
  },
  {
    "Compound": "COCCn1nnnc1C(c1cc2ccc(OC)cc2[nH]c1=O)N1CCc2ccccc2C1 (configuration not stated)",
    "Unit descriptor": "%",
    "differential viability (reversal)": -13.3
  },
  {
    "Compound": "O=C(Nc1ccc(-c2nc3ncccc3o2)cc1)c1ccc(Br)o1",
    "Unit descriptor": "%",
    "differential viability (reversal)": -4.05
  },
  {
    "Compound": "COc1ccccc1NC(=O)c1oc2ccccc2c1NC(=O)c1cc(OC)c(OC)c(OC)c1",
    "Unit descriptor": "%",
    "differential viability (reversal)": -18.4
  },
  {
    "Compound": "COc1ccc(C2/C(=C(/O)c3ccccc3)C(=O)C(=O)N2c2ncccn2)cc1OC (configuration not stated)",
    "Unit descriptor": "%",
    "differential viability (reversal)": 8.68
  },
  {
    "Compound": "Cc1ccc(Cn2c(C)nc3c(c2=O)c2nc4ccccc4nc2n3Cc2ccco2)cc1",
    "Unit descriptor": "%",
    "differential viability (reversal)": -1.46
  },
  {
    "Compound": "Cc1c(CNCc2cccs2)c(C(=O)O)c(C)n1Cc1ccccc1",
    "Unit descriptor": "%",
    "differential viability (reversal)": 5.63
  },
  {
    "Compound": "O=C1c2ccccc2C(=O)N1c1cccc(-c2nc3ccccc3o2)c1",
    "Unit descriptor": "%",
    "differential viability (reversal)": 7.94
  },
  {
    "Compound": "CCOC(=O)NC(c1ccccc1)C1CCCCC1=O (configuration not stated)",
    "Unit descriptor": "%",
    "differential viability (reversal)": 5.88
  },
  {
    "Compound": "CC1(C)Cc2noc(N)c2C(C)(C)N1OC(=O)c1cccs1",
    "Unit descriptor": "%",
    "differential viability (reversal)": 8.28
  },
  {
    "Compound": "CC1CCCCC1NC(=O)COc1ccc(-n2cnnn2)cc1 (configuration not stated)",
    "Unit descriptor": "%",
    "differential viability (reversal)": -0.38
  },
  {
    "Compound": "CCCOc1ccccc1C1CC(=O)Nc2cc3c(cc21)OCCO3 (configuration not stated)",
    "Unit descriptor": "%",
    "differential viability (reversal)": -39.2
  },
  {
    "Compound": "Nc1c(C(=O)NCCN2CCOCC2)c2nc3ccccc3nc2n1-c1ccc2c(c1)OCO2",
    "Unit descriptor": "%",
    "differential viability (reversal)": -8.75
  },
  {
    "Compound": "N#Cc1ccc(CSc2nnc(-c3cccs3)n2-c2ccccc2)cc1",
    "Unit descriptor": "%",
    "differential viability (reversal)": 34.1
  },
  {
    "Compound": "c1ccc(CNC2=NCCC2)nc1",
    "Unit descriptor": "%",
    "differential viability (reversal)": 3.93
  },
  {
    "Compound": "CC1(C)Cc2c(c(=S)nc(-c3ccccc3)n2CCO)CO1",
    "Unit descriptor": "%",
    "differential viability (reversal)": -4.25
  },
  {
    "Compound": "O=C(NCC(=O)N(CCc1ccccc1)C(C(=O)NC1CCCC1)c1cccnc1)c1ccco1 (configuration not stated)",
    "Unit descriptor": "%",
    "differential viability (reversal)": -1.49
  },
  {
    "Compound": "COC(=O)Nc1nc2ccc(Sc3ccccc3)cc2[nH]1",
    "Unit descriptor": "%",
    "differential viability (reversal)": -13.4
  }
]

---

# Assay notes: 384-well plate pilot, post-Golgi transport modulator project, inhibition of yeast transport mutant growth (AID 636)
# Run parameters: absorbance 615 nm, about 18 h, stronger effect = higher value
Readout type: inhibition (%)

[
  {
    "Compound": "O=C(Nc1ccccc1-c1ccccc1)NC1CCN(C(=O)N2CCOCC2)CC1",
    "Unit descriptor": "%",
    "Observed": -3.29
  },
  {
    "Compound": "Cc1cccc(-n2ncc(C#N)c2N)c1",
    "Unit descriptor": "%",
    "Observed": -2.76
  },
  {
    "Compound": "Cc1ccc(-c2nnn(CC(=O)N(CC(=O)NCC3CCCO3)c3ccccc3)n2)o1 (stereo not given)",
    "Unit descriptor": "%",
    "Observed": -5.97
  },
  {
    "Compound": "CN(C(=O)C1CCCO1)c1nnc(-c2ccncc2)s1 (stereo not given)",
    "Unit descriptor": "%",
    "Observed": -3.24
  },
  {
    "Compound": "Cc1ccccc1-c1nc(CS(=O)(=O)CC(=O)N(C)C2CCCCC2)c(C)o1",
    "Unit descriptor": "%",
    "Observed": 0.27
  }
]

---

# Assay notes: reversal of MRP1-mediated doxorubicin resistance, pilot screen, H69AR cells, doxorubicin co-treatment (AID 601)
# Run parameters: H69AR cells, CellTiter-Glo, 72 h; compound alone cytotoxicity; at 10 µM
viability by entry:
Readout type: viability (%)

[
  {
    "Compound": "Nc1cc(N)nc(SCc2ccccc2)n1",
    "Observed": 85.6
  },
  {
    "Compound": "Cc1ccc(S(=O)(=O)N2CCCC2)cc1S(=O)(=O)N1CCCC1",
    "Observed": 98.6
  },
  {
    "Compound": "COCCCNC(=O)CCCn1c(=O)c2ccccc2n(CC(=O)Nc2c(C)cccc2C)c1=O",
    "Observed": 93.1
  },
  {
    "Compound": "Cc1csc(OCc2ccc(C#N)cc2)n1",
    "Observed": 101
  },
  {
    "Compound": "CCN(CC)S(=O)(=O)c1ccc2oc(C(=O)O)c(C)c2c1",
    "Observed": 103
  },
  {
    "Compound": "CC(=O)Nc1ccc(NC(=O)Cn2cnc3c(cnn3C(C)(C)C)c2=O)cc1",
    "Observed": 98.9
  },
  {
    "Compound": "COc1ccccc1-c1nnc(SCC(=O)N2CC(C)CC(C)C2)o1 (stereo not given)",
    "Observed": 78.1
  },
  {
    "Compound": "O=C(CSc1nccn1Cc1ccccc1)Nc1nccs1",
    "Observed": 108
  },
  {
    "Compound": "COc1ccccc1C(=O)Nc1ccccc1C(=O)N1CCCC1",
    "Observed": 96
  },
  {
    "Compound": "COc1ccc(CNc2oc(-c3cccc4ccccc34)nc2C#N)cc1",
    "Observed": 96.9
  },
  {
    "Compound": "CC(NC(=O)c1ccc2c(c1)OCO2)C(c1cccs1)N1CCOCC1 (stereo not given)",
    "Observed": 105
  },
  {
    "Compound": "Cc1nn(C)c(C)c1NC(=O)CCSc1nc(-c2ccco2)cc(C(F)(F)F)n1",
    "Observed": 98.8
  },
  {
    "Compound": "Fc1cccc2sc(Nc3nnc(-c4ccco4)o3)nc12",
    "Observed": 41.2
  },
  {
    "Compound": "Cc1cc2ccccc2n1CCNC(=O)c1ccc(S(=O)(=O)N2CCOCC2)cc1",
    "Observed": 93
  },
  {
    "Compound": "COc1ccc(-n2c(SCC(N)=O)nc3sc4c(c3c2=O)CCN(C)C4)cc1",
    "Observed": 101
  },
  {
    "Compound": "O=C(Nc1ccc(Cc2ccncc2)cc1)C1CC1",
    "Observed": 99.5
  },
  {
    "Compound": "O=C(CNC(=O)c1cccs1)NCCN1CCN(c2ccccc2F)CC1",
    "Observed": 89.3
  },
  {
    "Compound": "O=C(NCCN1CCOCC1)c1ccc(CS(=O)(=O)Cc2ccccc2F)o1",
    "Observed": 108
  },
  {
    "Compound": "COc1ccccc1OCCCn1c(=O)oc2ccccc21",
    "Observed": 98.2
  },
  {
    "Compound": "CC1CC(C)CN(c2nc3c(c(=O)[nH]c(=O)n3C)n2CCCSc2nc3ccccc3s2)C1 (stereo not given)",
    "Observed": 100
  }
]
